The origin of these recorded values is patent US9233957B2.

- target or system: Mouse 11b-HSD1 (Mus musculus)
- Sequence (P50172 whole entry): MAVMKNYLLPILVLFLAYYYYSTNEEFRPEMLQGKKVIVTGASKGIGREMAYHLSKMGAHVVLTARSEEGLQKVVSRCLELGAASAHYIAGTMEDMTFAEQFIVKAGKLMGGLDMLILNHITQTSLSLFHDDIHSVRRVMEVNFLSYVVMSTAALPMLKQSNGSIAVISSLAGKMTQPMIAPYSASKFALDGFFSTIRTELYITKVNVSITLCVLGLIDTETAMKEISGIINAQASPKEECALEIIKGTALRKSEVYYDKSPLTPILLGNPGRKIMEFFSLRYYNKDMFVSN
- experiment summary: Inhibition of cortisone-to-cortisol conversion in CHO-K1 cells over-expressing mouse 11b-HSD1 (HTRF cortisol assay)
- setup conditions: CHO-K1 cells over-expressing mouse 11b-HSD1, 160 nM cortisone, 3 hours, 37° C.
pIC50: −log10 of the molar value.
Here the recorded pIC50 is given for each entry.

Some solved cases for reference:
>>> observed_result("NC(=O)[C@]12CC3CC(C1)[C@@H](NC(=O)c1ccc4cccc(OCc5ccccc5)c4n1)C(C3)C2")
"< 6.30"
>>> observed_result("NC(=O)[C@]12CC3CC(C1)[C@@H](NC(=O)c1ccc(-c4ccccc4)o1)C(C3)C2")
"> 7.00"
>>> observed_result("NC(=O)[C@]12CC3CC(C1)[C@@H](NC(=O)c1ccccn1)C(C3)C2")
"< 6.30"
>>> observed_result("NC(=O)[C@]12CC3CC(C1)[C@@H](NC(=O)c1cccc(N4CCC(c5ccccc5)CC4)n1)C(C3)C2")
"6.30 to 7.00"
>>> observed_result("Cn1c(C(=O)N[C@H]2C3CC4CC2C[C@](C(N)=O)(C4)C3)ccc1-c1ccc(Cl)cc1")
"6.30 to 7.00"

Could you share which pIC50 value was measured for NC(=O)[C@]12CC3CC(C1)[C@@H](NC(=O)c1ccc(-c4cccc(Cl)c4)s1)C(C3)C2 ?
> 7.00

Report pIC50 for NC(=O)[C@]12CC3CC(C1)[C@@H](NC(=O)c1ccc(-c4ccccc4F)o1)C(C3)C2 please.
> 7.00

Given Cn1c(C(=O)N[C@H]2C3CC4CC2C[C@](C(N)=O)(C4)C3)ccc1-c1ccccc1Cl , state its recorded pIC50.
> 7.00
